Sourced from ChEMBL document CHEMBL3259739

Biological target: CDC7/DBF4 (Cell division cycle 7-related protein kinase/Activator of S phase kinase) (Homo sapiens)
Experiment: Inhibition of Cdc7/Dbf4 (unknown origin) using 0.094 uM of ATP as substrate by AlphaScreen assay
Assay type: protein-complex assay
measured-parameter: IC50 (nM)
// return numeric value only (unit: nM, not printed)

In: I'd like to know its IC50. The compound in question is CCOC(=O)c1sc(-c2ccncc2)nc1O
Out: 528

###

Assay: Cmax in Sprague-Dawley rat at 5 mg/kg, po
Format: ADME, organism-based
Parameters: dose 5 mg/kg, route oral
Conditions: in vivo
measured-parameter: Cmax

In: I'd like to know its Cmax. The compound in question is NC(=O)c1sc(-c2ccnc(N)n2)nc1-c1ccc(Cl)cc1Cl
Out: 13 ng/mL

###

Biological target: CDC7/DBF4 (Cell division cycle 7-related protein kinase/Activator of S phase kinase) (Homo sapiens)
Assay: Inhibition of Cdc7/Dbf4 (unknown origin) using 0.75 uM of ATP as substrate by AlphaScreen assay
Type: protein-complex assay
measured-parameter: pIC50
Entry type: numeric. Quantity: pIC50, the -log10 of concentration in molar units.

In: I'd like to know its pIC50. The compound in question is CCOC(=O)c1sc(-c2ccncc2)nc1O
Out: 6.50

###

Assay: AUC (0 to t) in Sprague-Dawley rat at 5 mg/kg, po
Format: ADME, organism-based
Design: dose 5 mg/kg, route oral
Details: plasma
measured-parameter: AUC(0-t) (ng·h/mL)
// return numeric value only (unit: ng·h/mL, not printed)

In: I'd like to know its AUC(0-t). The molecule in question is NC(=O)c1sc(-c2ccnc(N)n2)nc1-c1ccc(Cl)cc1Cl
Out: 83.3

###

Target: CDK9/cyclin T1 (Homo sapiens, UniProt P50750)
Sequence (O60563 whole entry): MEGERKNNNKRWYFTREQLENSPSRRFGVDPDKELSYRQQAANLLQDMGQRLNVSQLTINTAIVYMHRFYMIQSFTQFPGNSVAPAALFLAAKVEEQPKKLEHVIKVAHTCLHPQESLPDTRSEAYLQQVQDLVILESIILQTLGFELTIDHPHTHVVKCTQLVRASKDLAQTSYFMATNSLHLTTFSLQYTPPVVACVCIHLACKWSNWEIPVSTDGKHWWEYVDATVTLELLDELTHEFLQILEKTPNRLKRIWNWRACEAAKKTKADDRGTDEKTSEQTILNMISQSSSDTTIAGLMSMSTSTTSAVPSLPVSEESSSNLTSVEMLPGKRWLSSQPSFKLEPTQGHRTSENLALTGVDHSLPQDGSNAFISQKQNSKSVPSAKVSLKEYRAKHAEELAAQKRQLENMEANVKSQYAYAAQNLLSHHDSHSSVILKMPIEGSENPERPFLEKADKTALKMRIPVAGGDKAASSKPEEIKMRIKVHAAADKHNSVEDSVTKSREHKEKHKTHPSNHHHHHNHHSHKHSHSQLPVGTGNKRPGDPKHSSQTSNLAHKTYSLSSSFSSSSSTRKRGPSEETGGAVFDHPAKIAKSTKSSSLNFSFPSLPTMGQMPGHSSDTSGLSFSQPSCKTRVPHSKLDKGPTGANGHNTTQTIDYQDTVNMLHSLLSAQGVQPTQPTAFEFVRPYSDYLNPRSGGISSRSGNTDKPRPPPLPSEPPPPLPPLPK
Sequence (P50750 whole entry): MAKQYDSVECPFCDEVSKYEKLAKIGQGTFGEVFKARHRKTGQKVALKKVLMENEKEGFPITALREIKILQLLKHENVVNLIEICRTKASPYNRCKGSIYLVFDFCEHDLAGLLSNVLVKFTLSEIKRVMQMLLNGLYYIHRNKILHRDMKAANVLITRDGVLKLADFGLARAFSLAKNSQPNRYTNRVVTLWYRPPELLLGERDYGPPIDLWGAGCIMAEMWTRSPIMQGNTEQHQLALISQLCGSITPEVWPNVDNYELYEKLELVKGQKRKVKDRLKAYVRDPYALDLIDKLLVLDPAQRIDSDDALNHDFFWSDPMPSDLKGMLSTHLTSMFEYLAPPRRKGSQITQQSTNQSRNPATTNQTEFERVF
Experiment: Inhibition of CDK9/Cyclin-T1 (unknown origin) by homogeneous time-resolved fluorescence assay
Please provide measured IC50 for the entries that follow.
// return numeric value only (unit: nM, not printed)

In: I'd like to know its IC50. The compound in question is COc1ccc(-c2nc(-c3ccnc(N)n3)sc2C(N)=O)c(Cl)c1
Out: 729

In: Here is the next compound: NC(=O)c1sc(-c2ccnc(N)n2)nc1-c1ccc(Cl)cc1Cl
Out: 749

###

Biological target: CDC7/DBF4 (Cell division cycle 7-related protein kinase/Activator of S phase kinase) (Homo sapiens)
Assay: Inhibition of Cdc7/Dbf4 (unknown origin) using 6 uM of ATP as substrate by AlphaScreen assay
Type: protein-complex assay
measured-parameter: pIC50
Entry type: numeric. Quantity: pIC50, the -log10 of concentration in molar units.

In: I'd like to know its pIC50. The compound in question is NC(=O)c1sc(-c2ccnc(N)n2)nc1-c1ccc(Cl)cc1Cl
Out: 7.89

###

Test system: Plasma
Assay: Unbound plasma concentration in NCR nude mouse xenografted with human HCT116 cells at 150 mg/kg, iv after 6 hrs
Assay type: ADME, organism-based, HCT-116
Design: dose 150 mg/kg, route intravenous
Details: in vivo
measured-parameter: Cp(f)

In: I'd like to know its Cp(f). The compound in question is NC(=O)c1sc(-c2ccnc(N)n2)nc1-c1ccc(Cl)cc1Cl
Out: > 1000 nM

###

Target: CDC7/DBF4 (Cell division cycle 7-related protein kinase/Activator of S phase kinase) (Homo sapiens, UniProt O00311)
Sequence (Q9UBU7 whole entry): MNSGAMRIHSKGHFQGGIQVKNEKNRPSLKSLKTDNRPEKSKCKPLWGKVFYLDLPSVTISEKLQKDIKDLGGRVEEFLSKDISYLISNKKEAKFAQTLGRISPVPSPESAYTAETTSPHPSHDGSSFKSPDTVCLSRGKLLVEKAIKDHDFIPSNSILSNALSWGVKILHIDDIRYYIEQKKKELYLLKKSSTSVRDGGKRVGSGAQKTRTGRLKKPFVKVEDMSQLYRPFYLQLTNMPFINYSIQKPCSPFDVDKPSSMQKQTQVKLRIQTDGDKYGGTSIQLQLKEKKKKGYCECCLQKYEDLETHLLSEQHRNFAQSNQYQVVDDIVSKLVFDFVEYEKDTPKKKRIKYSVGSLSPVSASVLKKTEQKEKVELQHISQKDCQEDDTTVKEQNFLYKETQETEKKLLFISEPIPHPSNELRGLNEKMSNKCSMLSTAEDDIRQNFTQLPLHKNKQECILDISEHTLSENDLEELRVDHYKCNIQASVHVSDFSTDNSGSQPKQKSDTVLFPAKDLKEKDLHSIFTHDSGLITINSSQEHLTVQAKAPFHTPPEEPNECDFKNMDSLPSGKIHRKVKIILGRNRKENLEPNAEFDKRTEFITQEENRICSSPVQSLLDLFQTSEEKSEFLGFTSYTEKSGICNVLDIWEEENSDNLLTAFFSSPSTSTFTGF
Sequence (O00311 whole entry): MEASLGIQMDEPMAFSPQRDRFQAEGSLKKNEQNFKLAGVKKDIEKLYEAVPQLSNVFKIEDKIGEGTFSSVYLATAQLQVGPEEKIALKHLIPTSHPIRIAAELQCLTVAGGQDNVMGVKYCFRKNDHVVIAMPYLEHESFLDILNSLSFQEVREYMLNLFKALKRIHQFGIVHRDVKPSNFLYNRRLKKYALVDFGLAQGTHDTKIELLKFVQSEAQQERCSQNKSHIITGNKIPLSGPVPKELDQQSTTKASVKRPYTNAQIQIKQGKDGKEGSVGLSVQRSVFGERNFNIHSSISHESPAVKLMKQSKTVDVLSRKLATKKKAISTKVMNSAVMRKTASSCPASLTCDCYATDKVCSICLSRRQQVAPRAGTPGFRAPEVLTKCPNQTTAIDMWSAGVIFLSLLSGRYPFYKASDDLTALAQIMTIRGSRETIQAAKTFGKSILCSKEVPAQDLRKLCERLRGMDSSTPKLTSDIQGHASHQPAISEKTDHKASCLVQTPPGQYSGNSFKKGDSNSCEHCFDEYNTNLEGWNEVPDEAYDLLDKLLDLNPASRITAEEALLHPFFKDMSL
Assay: Inhibition of Cdc7/Dbf4 (unknown origin)-mediated phosphorylation of MCM2 by protein-A luminescent proximity homogenous assay
Assay type: protein-complex assay
Please provide measured log10 of IC50 for the entries that follow.
// units: µM (pre-log); metric: IC50; scale: log10

In: I'd like to know its log10 of IC50. The compound in question is CCOC(=O)c1sc(-c2ccncc2)nc1-c1ccc(F)cc1Cl
Out: 0.01

In: Here is the next compound: CCOC(=O)c1sc(-c2ccnc(N)c2)nc1-c1ccccc1
Out: 1.30

In: Here is the next compound: CCOC(=O)c1sc(-c2ccncc2)nc1NC
Out: 0.87

In: Here is the next compound: CNC(=O)c1sc(-c2ccncc2)nc1O
Out: 0.95

In: Here is the next compound: CCOC(=O)c1sc(-c2ccncc2)nc1C
Out: 1.40

In: Here is the next compound: CCOC(=O)c1sc(-c2ccncc2)nc1-c1ccc(OC)cc1Cl
Out: -0.07

In: Here is the next compound: CCOC(=O)c1sc(-c2ccccc2)nc1O
Out: 1.67

In: Here is the next compound: NNC(=O)c1sc(-c2ccncc2)nc1-c1ccccc1
Out: -0.33

In: Here is the next compound: CCOC(=O)c1sc(-c2cnccn2)nc1O
Out: 1.42

In: Here is the next compound: NC(=O)c1sc(-c2ccnc(N)n2)nc1-c1ccccc1C(F)(F)F
Out: -1.74

In: Here is the next compound: CCOC(=O)c1sc(-c2ccncc2)nc1NCc1ccccc1
Out: 1.58

In: Here is the next compound: CCOC(=O)c1sc(-c2ccncc2)nc1O
Out: -0.49

In: Here is the next compound: O=C(O)c1sc(-c2ccncc2)nc1-c1ccccc1
Out: -0.76

In: Here is the next compound: CN(C)c1nc(-c2ccnc(N)n2)sc1C(N)=O
Out: -1.69

In: Here is the next compound: NC(=O)c1sc(-c2ccncc2)nc1-c1ccc(Cl)cc1Cl
Out: -1.84

In: Here is the next compound: O=C1Nc2ccccc2Nc2nc(-c3ccncc3)sc21
Out: -0.98

In: Here is the next compound: c1ccc(-c2nc(-c3ccncc3)sc2-c2nn[nH]n2)cc1
Out: -0.34

In: Here is the next compound: O=C(NCc1ccccc1)c1sc(-c2ccncc2)nc1O
Out: 1.06

In: Here is the next compound: COc1nc(-c2ccncc2)sc1C(N)=O
Out: -1.02

In: Here is the next compound: N#Cc1sc(-c2ccncc2)nc1-c1ccccc1
Out: 1.01

In: Here is the next compound: NC(=O)c1sc(-c2ccnc(N)n2)nc1-c1cc(Cl)cc(Cl)c1
Out: -1.21

In: Here is the next compound: NC(=O)c1sc(-c2ccnc(N)n2)nc1-c1ccccc1F
Out: -1.75

In: Here is the next compound: CCOC(=O)c1sc(-c2ccncc2)nc1-c1ccc(Cl)cc1Cl
Out: -0.01

In: Here is the next compound: CCOC(=O)c1sc(-c2ccncc2)nc1N(C)C
Out: -0.17

In: Here is the next compound: CCOC(=O)c1sc(-c2ccncc2)nc1-c1ccccc1Cl
Out: -0.28

In: Here is the next compound: CCOC(=O)c1sc(-c2ccncc2)nc1OC
Out: 1.24

In: Here is the next compound: NC(=O)c1sc(-c2ccnc(N)n2)nc1-c1ccc(Cl)cc1Cl
Out: -2.42

In: Here is the next compound: O=C(O)c1sc(-c2ccncc2)nc1O
Out: 0.79

In: Here is the next compound: NC(=O)c1sc(-c2ccncc2)nc1-c1ccccc1
Out: -1.00

In: Here is the next compound: CCOC(=O)c1cnc(-c2ccncc2)s1
Out: 1.38

In: Here is the next compound: CCOC(=O)c1sc(-c2ccsc2)nc1O
Out: 1.47

In: Here is the next compound: COc1ccc(-c2nc(-c3ccnc(N)n3)sc2C(N)=O)c(Cl)c1
Out: -2.17

In: Here is the next compound: Cc1ccc(-c2nc(-c3ccnc(N)n3)sc2C(N)=O)c(Cl)c1
Out: -2.22

In: Here is the next compound: CCOC(=O)c1sc(-c2ccnc(CC)c2)nc1O
Out: 0.88

In: Here is the next compound: CCOC(=O)c1sc(-c2ccncc2)nc1-c1cccnc1
Out: 0.92

In: Here is the next compound: CN(C)C(=O)c1sc(-c2ccncc2)nc1O
Out: 1.39

In: Here is the next compound: CCOC(=O)c1sc(-c2ccncc2)nc1-c1ccccc1
Out: 1.31

In: Here is the next compound: CCOC(=O)c1sc(-c2ccncc2)nc1N
Out: 0.62

###

Experiment: Intrinsic clearance in rat liver microsomes at 1 uM after 30 mins by reverse phase HPLC analysis in presence of NADPH
Type: ADME
Conditions: read-out: CLH
Please provide measured microsomal CLint at 1 µM for the entries that follow.

In: I'd like to know its microsomal CLint at 1 µM. The molecule in question is CCOC(=O)c1sc(-c2ccncc2)nc1O
Out: < 14 µL/min/mg

In: Here is the next molecule: NC(=O)c1sc(-c2ccnc(N)n2)nc1-c1ccccc1F
Out: < 14 µL/min/mg

In: Here is the next molecule: NC(=O)c1sc(-c2ccnc(N)n2)nc1-c1ccccc1C(F)(F)F
Out: < 14 µL/min/mg
